Provenance of the data: ChEMBL document CHEMBL2412990

- Measurement Target: D(2) dopamine receptor (Rattus norvegicus, UniProt P61169)
- Sequence (P61169 whole entry): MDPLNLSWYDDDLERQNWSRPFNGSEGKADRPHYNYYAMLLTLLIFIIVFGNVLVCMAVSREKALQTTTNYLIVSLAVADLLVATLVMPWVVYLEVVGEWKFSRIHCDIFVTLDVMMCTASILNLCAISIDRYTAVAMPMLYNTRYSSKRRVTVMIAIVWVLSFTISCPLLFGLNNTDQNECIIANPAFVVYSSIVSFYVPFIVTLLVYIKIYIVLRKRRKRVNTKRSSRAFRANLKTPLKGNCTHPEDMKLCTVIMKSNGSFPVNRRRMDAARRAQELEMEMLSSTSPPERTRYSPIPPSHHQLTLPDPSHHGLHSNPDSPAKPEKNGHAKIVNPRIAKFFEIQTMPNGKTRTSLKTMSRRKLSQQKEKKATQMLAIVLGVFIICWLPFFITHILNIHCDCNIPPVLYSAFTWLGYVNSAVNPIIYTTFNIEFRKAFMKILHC
- Protocol: Displacement of [3H]-YM-09151-2 from D2 receptor in rat brain striatal membranes after 60 mins by liquid scintillation counting
Would you mind telling me the reported pKi of each entry?
Numbers only, as −log10 of the molar value.

Answered examples (2):
[in] What is its pKi for D(2) dopamine receptor (Rattus norvegicus, UniProt P61169)? Entry: Clc1ccc(-n2cc(COCCCN3CCN(c4ccccc4)CC3)cn2)cc1
[out] 6.10

[in] Provide value of pKi for this record tested with D(2) dopamine receptor (Rattus norvegicus, UniProt P61169): Clc1ccc(-n2cc(CCCN3CCN(c4ccccc4)CC3)cn2)cc1
[out] 6.17

Give pKi for each of the items listed below.
1. Clc1ccc(-n2cc(CN3CCN(c4ccccc4)CC3)cn2)cc1
2. Clc1ccc(-n2cc(CCCCCN3CCN(c4ccccc4)CC3)cn2)cc1
3. Clc1ccc(-n2cc(COCCN3CCN(c4ccccc4)CC3)cn2)cc1
4. Clc1ccc(-n2cc(CCCCN3CCN(c4ccccc4)CC3)cn2)cc1

[out]
1: 6.41; 2: 6.31; 3: 5.72; 4: 6.60

====

- Measurement Target: D(4) dopamine receptor (Homo sapiens, UniProt P21917)
- Sequence (P21917 whole entry): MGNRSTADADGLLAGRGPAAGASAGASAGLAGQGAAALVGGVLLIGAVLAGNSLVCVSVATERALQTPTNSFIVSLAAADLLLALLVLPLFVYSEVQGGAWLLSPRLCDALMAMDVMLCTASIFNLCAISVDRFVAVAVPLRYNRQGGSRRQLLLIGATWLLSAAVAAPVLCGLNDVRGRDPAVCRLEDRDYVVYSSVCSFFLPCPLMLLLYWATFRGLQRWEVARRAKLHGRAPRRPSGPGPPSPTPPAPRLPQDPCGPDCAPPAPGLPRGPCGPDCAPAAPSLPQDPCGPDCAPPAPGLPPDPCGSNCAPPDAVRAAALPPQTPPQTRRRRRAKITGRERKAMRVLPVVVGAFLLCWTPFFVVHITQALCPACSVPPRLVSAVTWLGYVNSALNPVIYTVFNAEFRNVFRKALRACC
Quantity: pKi
Answers are plain numbers, as −log10 of the molar value.

[in] Which pKi reading was recorded for the compound Clc1ccc(-n2cc(COCCCN3CCN(c4ccccc4)CC3)cn2)cc1 ?
[out] 5.82

====

- Measurement Target: Adrenergic receptor alpha-2 (Rattus norvegicus, UniProt P22086+P19328+P22909)
- Protocol: Displacement of [3H]-RX821002 from alpha2 adrenoreceptor in rat brain cortical membranes after 45 mins by liquid scintillation counting
- Assay type: cell membranes, Membrane
Record form. Attribute: Ki. Fill in for each entry.
Give bare numbers, in nM.

[in] Sample Clc1ccc(-n2cc(CCCCN3CCN(c4ccccc4)CC3)cn2)cc1 — what was its Ki?
[out] 610

[in] Can you share its Ki? I mean this compound: Clc1ccc(-n2cc(CN3CCN(c4ccccc4)CC3)cn2)cc1
[out] 2500

[in] Which Ki reading was recorded for the compound Clc1ccc(-n2cc(CCCCCN3CCN(c4ccccc4)CC3)cn2)cc1 ?
[out] 1400

[in] Ki lookup needed for Clc1ccc(-n2cc(COCCCN3CCN(c4ccccc4)CC3)cn2)cc1 , thanks.
[out] 2800

[in] Consider the compound Clc1ccc(-n2cc(CCCN3CCN(c4ccccc4)CC3)cn2)cc1 and give its measured Ki.
[out] 1600

--- query ---
[in] Give the measured Ki of Clc1ccc(-n2cc(COCCN3CCN(c4ccccc4)CC3)cn2)cc1 .
[out] 2100

====

- Measurement Target: 5-hydroxytryptamine receptor 2C (Homo sapiens, UniProt P28335)
- Sequence (P28335 whole entry): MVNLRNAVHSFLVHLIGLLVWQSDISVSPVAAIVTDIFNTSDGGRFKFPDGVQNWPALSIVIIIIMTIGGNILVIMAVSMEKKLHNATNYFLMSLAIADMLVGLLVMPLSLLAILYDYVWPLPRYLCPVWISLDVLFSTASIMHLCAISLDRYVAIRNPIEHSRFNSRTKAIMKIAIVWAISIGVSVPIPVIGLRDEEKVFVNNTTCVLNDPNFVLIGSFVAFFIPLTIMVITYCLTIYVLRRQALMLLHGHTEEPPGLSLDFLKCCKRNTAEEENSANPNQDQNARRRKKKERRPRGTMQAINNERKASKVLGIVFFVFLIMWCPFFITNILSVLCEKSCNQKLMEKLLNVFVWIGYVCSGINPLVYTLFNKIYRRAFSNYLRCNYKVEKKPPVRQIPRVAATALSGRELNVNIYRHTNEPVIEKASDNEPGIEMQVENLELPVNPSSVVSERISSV
Quantity: pKi
Give bare numbers, as −log10 of the molar value.

# per-item lookup of pKi; items listed below
1. Clc1ccc(-n2cc(COCCN3CCN(c4ccccc4)CC3)cn2)cc1
2. Clc1ccc(-n2cc(CCCCN3CCN(c4ccccc4)CC3)cn2)cc1
3. Clc1ccc(-n2cc(CN3CCN(c4ccccc4)CC3)cn2)cc1

[out]
1. 5.09
2. 5.23
3. 5.06

Quick request: pKi for each listed item, please.
1. Clc1ccc(-n2cc(CCCCCN3CCN(c4ccccc4)CC3)cn2)cc1
2. Clc1ccc(-n2cc(CCCN3CCN(c4ccccc4)CC3)cn2)cc1

[out]
1. 5.11
2. 5.29

====

- Measurement Target: Alpha-1B adrenergic receptor (Rattus norvegicus)
- Sequence (P15823 whole entry): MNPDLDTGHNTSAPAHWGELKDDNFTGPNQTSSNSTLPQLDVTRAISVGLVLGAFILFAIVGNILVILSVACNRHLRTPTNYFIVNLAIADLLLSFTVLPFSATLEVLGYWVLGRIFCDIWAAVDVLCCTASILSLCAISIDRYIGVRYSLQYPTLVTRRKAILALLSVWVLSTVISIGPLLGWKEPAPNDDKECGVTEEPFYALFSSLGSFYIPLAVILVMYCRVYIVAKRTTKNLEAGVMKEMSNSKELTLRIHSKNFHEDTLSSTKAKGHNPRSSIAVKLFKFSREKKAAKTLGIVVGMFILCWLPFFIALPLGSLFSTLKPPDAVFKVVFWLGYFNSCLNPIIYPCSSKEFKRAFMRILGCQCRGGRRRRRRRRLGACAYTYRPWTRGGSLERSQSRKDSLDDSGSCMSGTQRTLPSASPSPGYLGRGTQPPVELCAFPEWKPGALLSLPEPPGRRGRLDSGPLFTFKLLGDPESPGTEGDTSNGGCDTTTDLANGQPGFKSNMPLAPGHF
Quantity: pKi
One number for each entry, as −log10 of the molar value.

[in] Can you look up the measured pKi of Clc1ccc(-n2cc(CCCCCN3CCN(c4ccccc4)CC3)cn2)cc1 for me?
[out] 6.42

====

- Measurement Target: Muscarinic acetylcholine receptor (Rattus norvegicus) (UniProt P08482+P08483+P08485+P08911+P10980)
- Protocol: Displacement of [3H]-QNB from muscarinic receptor in rat brain cortical membranes at 30 uM after 60 mins by liquid scintillation counting
- Type: cell membranes
- Measurement Conditions: Membrane
Quantity: inhibition (%)
Numbers only, in %.

Below, 2 compounds whose answers are already recorded.
[in] Given the entry Clc1ccc(-n2cc(COCCCN3CCN(c4ccccc4)CC3)cn2)cc1 , report its measured inhibition.
[out] 28

[in] Requested field: inhibition. Item: Clc1ccc(-n2cc(CCCN3CCN(c4ccccc4)CC3)cn2)cc1
[out] 39

I'm hoping you can list inhibition for every compound here, please.
1. Clc1ccc(-n2cc(COCCN3CCN(c4ccccc4)CC3)cn2)cc1
2. Clc1ccc(-n2cc(CCCCCN3CCN(c4ccccc4)CC3)cn2)cc1
3. Clc1ccc(-n2cc(CCCCN3CCN(c4ccccc4)CC3)cn2)cc1
4. Clc1ccc(-n2cc(CN3CCN(c4ccccc4)CC3)cn2)cc1

[out]
1: 11; 2: 26; 3: 2; 4: 22

====

- Measurement Target: 5-hydroxytryptamine receptor 1A (Rattus norvegicus)
- Sequence (P19327 whole entry): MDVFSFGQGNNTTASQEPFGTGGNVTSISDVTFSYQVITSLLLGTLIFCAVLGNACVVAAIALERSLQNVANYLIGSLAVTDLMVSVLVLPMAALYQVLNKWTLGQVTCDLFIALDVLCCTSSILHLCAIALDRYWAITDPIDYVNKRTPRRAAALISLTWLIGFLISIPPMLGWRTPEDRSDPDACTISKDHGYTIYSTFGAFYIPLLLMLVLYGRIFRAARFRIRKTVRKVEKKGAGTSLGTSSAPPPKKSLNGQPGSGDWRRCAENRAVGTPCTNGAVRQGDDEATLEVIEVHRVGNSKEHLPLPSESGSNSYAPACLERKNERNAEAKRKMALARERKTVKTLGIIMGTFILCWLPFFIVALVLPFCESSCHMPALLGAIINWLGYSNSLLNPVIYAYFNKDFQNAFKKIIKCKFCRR
Quantity: Ki

[in] Lab note: need Ki for Clc1ccc(-n2cc(CCCCN3CCN(c4ccccc4)CC3)cn2)cc1 on 5-hydroxytryptamine receptor 1A (Rattus norvegicus), anyone have it?
[out] 90 nM

[in] What is its Ki for 5-hydroxytryptamine receptor 1A (Rattus norvegicus)? Entry: Clc1ccc(-n2cc(CCCN3CCN(c4ccccc4)CC3)cn2)cc1
[out] 180 nM

Shifting focus to the compound that follows.
[in] Param readout= Ki; system= 5-hydroxytryptamine receptor 1A (Rattus norvegicus); entry= Clc1ccc(-n2cc(CCCCCN3CCN(c4ccccc4)CC3)cn2)cc1 ; returns value.
[out] 160 nM
